Molecular target: NIH-3T3 cells overexpressing human IGF-1R (Homo sapiens, UniProt P08069)
Sequence (P08069 31-1367): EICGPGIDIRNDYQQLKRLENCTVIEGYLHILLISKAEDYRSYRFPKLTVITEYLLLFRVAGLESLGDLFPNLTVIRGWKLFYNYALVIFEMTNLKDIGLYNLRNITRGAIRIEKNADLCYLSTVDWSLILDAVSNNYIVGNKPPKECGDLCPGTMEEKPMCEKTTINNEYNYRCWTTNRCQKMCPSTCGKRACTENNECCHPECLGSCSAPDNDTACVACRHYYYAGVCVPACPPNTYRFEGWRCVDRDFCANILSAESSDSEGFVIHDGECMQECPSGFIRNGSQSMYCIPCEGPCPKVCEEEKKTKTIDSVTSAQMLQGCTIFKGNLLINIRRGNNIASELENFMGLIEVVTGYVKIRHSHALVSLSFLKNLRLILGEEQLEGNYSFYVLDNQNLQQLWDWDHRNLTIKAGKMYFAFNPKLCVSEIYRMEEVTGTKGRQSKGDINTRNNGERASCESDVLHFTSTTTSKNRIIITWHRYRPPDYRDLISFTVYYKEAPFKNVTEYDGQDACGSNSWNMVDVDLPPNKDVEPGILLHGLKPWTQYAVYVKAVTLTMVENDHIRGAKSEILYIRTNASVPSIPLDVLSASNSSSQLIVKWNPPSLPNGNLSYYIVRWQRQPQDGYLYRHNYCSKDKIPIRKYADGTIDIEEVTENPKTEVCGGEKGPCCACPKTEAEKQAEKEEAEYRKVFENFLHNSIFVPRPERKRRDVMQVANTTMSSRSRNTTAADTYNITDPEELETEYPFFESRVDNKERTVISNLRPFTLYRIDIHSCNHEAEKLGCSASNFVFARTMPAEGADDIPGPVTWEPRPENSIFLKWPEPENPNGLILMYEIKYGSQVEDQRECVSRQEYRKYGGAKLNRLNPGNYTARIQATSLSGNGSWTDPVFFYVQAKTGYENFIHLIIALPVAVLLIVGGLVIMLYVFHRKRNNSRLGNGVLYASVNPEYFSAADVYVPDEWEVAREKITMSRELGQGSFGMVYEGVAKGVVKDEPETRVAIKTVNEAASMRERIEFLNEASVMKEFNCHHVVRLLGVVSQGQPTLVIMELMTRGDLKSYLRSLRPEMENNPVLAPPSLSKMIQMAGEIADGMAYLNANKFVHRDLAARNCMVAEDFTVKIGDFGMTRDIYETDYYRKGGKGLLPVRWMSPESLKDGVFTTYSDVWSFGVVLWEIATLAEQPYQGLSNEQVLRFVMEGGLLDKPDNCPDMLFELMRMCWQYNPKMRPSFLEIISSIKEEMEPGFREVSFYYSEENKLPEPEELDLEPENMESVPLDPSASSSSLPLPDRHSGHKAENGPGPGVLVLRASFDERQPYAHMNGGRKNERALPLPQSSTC
Experiment: IGF-1R cellular autophosphorylation (DELFIA)
Method: NIH-3T3 cells overexpressing human IGF-1R or IR were plated in 96-well plates (10,000 cells/well) in culture media containing 10% fetal bovine serum and incubated at 37° C. in a 5% CO2 incubator. Twenty four hours post-plating, cells were treated with different concentrations of test compounds ranging from 30 uM to 1.5 nM. […] The fluorescence signal for cells treated with compounds was expressed as percent relative to 100% stimulation (IGF-1 or insulin stimulated signal).
pIC50: −log10 of the molar value.
Measured endpoint: pIC50

> print(dat)
                                   molecule                              study.target  measured.endpoint   value
1  CNC(=O)c1c(F)cccc1Nc1nc(Nc2cc3c(cc2OC)CCCN3C(=O)CCN(C)C)nc2[nH]ccc12 [Example 213]  NIH-3T3 cells overexpressing human IGF-1R (Homo sapiens, UniProt P08069)              pIC50  < 6.30
2  COc1cc(N2CCN(C(C)C)CC2)ccc1Nc1nc(Nc2cc(F)cc(OC)c2C(N)=O)c2cc[nH]c2n1 [Example 88]  NIH-3T3 cells overexpressing human IGF-1R (Homo sapiens, UniProt P08069)              pIC50  < 6.30
3  COc1cc(N2CCN(CC3CC3)CC2)ccc1Nc1nc(Nc2cc(F)ccc2C(N)=O)c2cc[nH]c2n1 [Example 81]  NIH-3T3 cells overexpressing human IGF-1R (Homo sapiens, UniProt P08069)              pIC50  > 7.00

QUERY: Need pIC50, item COc1cc2c(cc1Nc1nc(Nc3cccc(F)c3C(N)=O)c3cc[nH]c3n1)N(C(=O)CN1CCN(C(C)C)CC1)CC2 [Example 186]
RESULT: 6.30 to 7.00

====

Molecular target: human IGF1R (hIGF1R) (Homo sapiens, UniProt P08069)
Construct: containing amino acid residues 957-1367 of human IGF1R; made in house; host or cells: Sf9 cells (baculovirus)
Sequence (P08069 957-1367): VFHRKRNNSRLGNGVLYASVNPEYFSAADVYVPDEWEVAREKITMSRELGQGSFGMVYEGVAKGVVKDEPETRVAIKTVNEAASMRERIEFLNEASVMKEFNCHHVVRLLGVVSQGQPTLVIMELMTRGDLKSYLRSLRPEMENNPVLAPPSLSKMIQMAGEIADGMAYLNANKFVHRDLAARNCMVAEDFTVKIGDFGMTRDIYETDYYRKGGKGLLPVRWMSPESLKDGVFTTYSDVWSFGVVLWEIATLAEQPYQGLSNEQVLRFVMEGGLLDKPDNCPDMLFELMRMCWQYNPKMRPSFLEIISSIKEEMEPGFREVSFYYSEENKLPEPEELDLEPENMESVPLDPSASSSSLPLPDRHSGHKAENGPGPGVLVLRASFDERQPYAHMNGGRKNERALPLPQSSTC
Test: TR-FRET kinase assay of purified hIGF1R
Format: biochemical
Details: activated hIGF1R 0.5 nM, 10 μM ATP, values given as pIC50 category, read-out: IGF-1R pIC50 (converted)
# maps each entry to its IC50

> print(dat)
                         chemical.structure            value
1  COc1cc2c(cc1Nc1nc(Nc3cccc(F)c3C(N)=O)c3cc[nH]c3n1)N(C(=O)CN)CC2  1.26 to 3.98 nM
2  COc1cc(N2CCN(S(C)(=O)=O)CC2)ccc1Nc1nc(Nc2cccc(F)c2C(N)=O)c2cc[nH]c2n1   5.01 to 200 nM
3  CCN(C)CC(=O)N1CCc2cc(OC)c(Nc3nc(Nc4cccc(F)c4C(N)=O)c4cc[nH]c4n3)cc21  1.26 to 3.98 nM
4  COc1cc(N2CCCN(C(C)C)CC2)ccc1Nc1nc(Nc2cccc(F)c2C(N)=O)c2cc[nH]c2n1   5.01 to 200 nM

QUERY: Need IC50, item CCCN(CCC)[C@@H](C)C(=O)N1CCc2cc(OC)c(Nc3nc(Nc4cccc(F)c4C(N)=O)c4cc[nH]c4n3)cc21
RESULT: 5.01 to 200 nM

QUERY: How about CNC(=O)c1c(F)cccc1Nc1nc(Nc2cc3c(cc2OC)CCC(=O)N3)nc2[nH]ccc12 ?
RESULT: 5.01 to 200 nM

QUERY: How about COc1cc(N2CCC(N3CCOCC3)CC2)ccc1Nc1nc(Nc2cc(F)c(F)cc2C(N)=O)c2cc[nH]c2n1 ?
RESULT: 0.251 to 1 nM

QUERY: How about COc1cc(C)c(NC(=O)CN(C)C)cc1Nc1nc(Nc2cccc(F)c2C(N)=O)c2cc[nH]c2n1 ?
RESULT: 0.251 to 1 nM

====

Target: human IGF1R (hIGF1R) (Homo sapiens)
Construct: containing amino acid residues 957-1367 of human IGF1R; made in house; host or cells: Sf9 cells (baculovirus)
Assay: TR-FRET kinase assay of purified hIGF1R
Format: biochemical
Details: activated hIGF1R 0.5 nM, 10 μM ATP, values given as pIC50 category, read-out: IGF-1R pIC50 (converted)
Measured endpoint: IC50

Example entries and their recorded answers appear below.
> print(dat)
                                   compound  measured.endpoint            value
1  CCCN1CCC=C(c2ccc(Nc3nc(Nc4cc(C)ccc4C(N)=O)c4cc[nH]c4n3)c(C)c2)C1 [Example 35]               IC50   5.01 to 200 nM
2  COCC(=O)N1CCc2cc(OC)c(Nc3nc(Nc4cccc(F)c4C(N)=O)c4cc[nH]c4n3)cc21 [Example 149]               IC50   5.01 to 200 nM
3  COc1cc(N2CCN(C(C)C)CC2)ccc1Nc1nc(Nc2cc(F)cc(OC)c2C(N)=O)c2cc[nH]c2n1 [Example 88]               IC50  1.26 to 3.98 nM
4  COc1cc2c(cc1Nc1nc(Nc3cccc(F)c3C(N)=O)c3cc[nH]c3n1)N(C(=O)CN1CCN(C(C)C)CC1)CC2 [Example 186]               IC50   5.01 to 200 nM
5  CNC(=O)c1c(F)cc(F)cc1Nc1nc(Nc2cc3c(cc2OC)CCCN3C(=O)CN2CCCC2)nc2[nH]ccc12 [Example 221]               IC50    0.251 to 1 nM
6  CN(C)CC(=O)Nc1ccc(OC(F)(F)F)c(Nc2nc(Nc3ccc(F)cc3C(N)=O)c3cc[nH]c3n2)c1 [Example 63]               IC50    0.251 to 1 nM
7  COc1cc2c(cc1Nc1nc(Nc3cccc(F)c3C(N)=O)c3cc[nH]c3n1)N(C(=O)CN(C)C)CC2 [Example 53]               IC50    0.251 to 1 nM

QUERY: Need IC50, item COc1cc(N2CCN(C(C)C)CC2)ccc1Nc1nc(Nc2cc(Cl)cc(F)c2C(N)=O)c2cc[nH]c2n1 [Example 93]
RESULT: 1.26 to 3.98 nM

====

# maps each entry to its pIC50
Biological target: human IR (hIR) (Homo sapiens)
Construct: containing amino acid residues 979-1382 of human IR
Sequence (P06213 979-1382): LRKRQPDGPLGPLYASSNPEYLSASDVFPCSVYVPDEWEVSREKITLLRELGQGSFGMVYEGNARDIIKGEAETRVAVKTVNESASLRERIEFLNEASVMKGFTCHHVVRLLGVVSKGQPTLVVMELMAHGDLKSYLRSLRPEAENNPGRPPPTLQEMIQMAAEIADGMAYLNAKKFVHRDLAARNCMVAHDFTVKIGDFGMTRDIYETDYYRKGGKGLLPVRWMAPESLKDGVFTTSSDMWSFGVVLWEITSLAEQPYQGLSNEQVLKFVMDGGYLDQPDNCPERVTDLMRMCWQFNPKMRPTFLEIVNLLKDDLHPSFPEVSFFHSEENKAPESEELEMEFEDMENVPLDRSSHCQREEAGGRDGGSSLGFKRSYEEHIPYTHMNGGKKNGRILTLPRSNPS
Test: TR-FRET kinase assay of purified hIR
Settings: activated hIR 0.5 nM, 10 μM ATP, values given as pIC50 category
pIC50: −log10 of the molar value.

Example entries and their recorded answers appear below.
> print(dat)
                                   molecule         value
1  CNC(=O)c1c(F)cccc1Nc1nc(Nc2cc3c(cc2OC)CCCN3C(=O)[C@@H]2CCCN2C)nc2[nH]ccc12 [Example 202]  6.80 to 8.30
2  CNC(=O)c1c(Nc2nc(Nc3cc4c(cc3OC)CCN4C(=O)CN(C)C)nc3[nH]ccc23)ccc(F)c1F [Example 160]  8.40 to 8.90

QUERY: Value wanted: pIC50 (human IR (hIR) (Homo sapiens)) of entry CCCN1CCC=C(c2ccc(Nc3nc(Nc4ccc(OC)cc4C(N)=O)c4cc[nH]c4n3)c(OC)c2)C1 [Example 38]
RESULT: 8.40 to 8.90

====

Target: NIH-3T3 cells overexpressing human IGF-1R (Homo sapiens, UniProt P08069)
Construct: expressed in transfected cells; host or cells: NIH-3T3 (mouse fibroblasts)
Assay: IGF-1R cellular autophosphorylation (DELFIA)
Format: cell-based
Measured endpoint: IC50

Example entries and their recorded answers appear below.
> print(dat)
                                   compound          value
1  COc1cc(N2CCC(N3CC[C@H](F)C3)CC2)ccc1Nc1nc(Nc2cccc(F)c2C(N)=O)c2cc[nH]c2n1  100 to 500 nM
2  COc1ccc(NC(=O)CN(C)C)cc1Nc1nc(Nc2ccccc2C(N)=O)c2cc[nH]c2n1       < 100 nM
3  COc1ccc(C(N)=O)c(Nc2nc(Nc3ccc(N4CCOC[C@@H]4C)cc3OC)nc3[nH]ccc23)c1  100 to 500 nM
4  CNC(=O)c1ccccc1Nc1nc(Nc2ccc(C3CCCN(C)C3)cc2OC)nc2[nH]ccc12 (stereo not drawn)  100 to 500 nM
5  COc1cc(C)c(N(C)C(=O)CN(C)C)cc1Nc1nc(Nc2cccc(F)c2C(N)=O)c2cc[nH]c2n1       > 500 nM
6  Cc1ccc(NC(=O)CN2CCCC2)cc1Nc1nc(Nc2ccccc2C(N)=O)c2cc[nH]c2n1  100 to 500 nM
7  CNC(=O)c1c(F)cccc1Nc1nc(Nc2cc3c(cc2OC)CCCN3C(=O)CN2CCCCC2)nc2[nH]ccc12       < 100 nM
8  COc1cc(N2CCOCC2)ccc1Nc1nc(Nc2cc(F)ccc2C(N)=O)c2cc[nH]c2n1       < 100 nM

Next compound, please.
QUERY: Need IC50, item CCCN1CCC=C(c2ccc(Nc3nc(Nc4cccc(F)c4C(N)=O)c4cc[nH]c4n3)c(OC)c2)C1
RESULT: 100 to 500 nM
